All figures here come from patent US7884117B2.

Exercise: state measured pEC50 for each of the compounds provided.
- TESTED ON: PAK4 kinase activity in whole cells (TR-293-KDG, modified HEK 293) (Homo sapiens, UniProt O96013)
- Construct: engineered to overexpress both GEF-H1b and the kinase domain (KD) of PAK4
- Sequence (O96013 321-572 limits assumed): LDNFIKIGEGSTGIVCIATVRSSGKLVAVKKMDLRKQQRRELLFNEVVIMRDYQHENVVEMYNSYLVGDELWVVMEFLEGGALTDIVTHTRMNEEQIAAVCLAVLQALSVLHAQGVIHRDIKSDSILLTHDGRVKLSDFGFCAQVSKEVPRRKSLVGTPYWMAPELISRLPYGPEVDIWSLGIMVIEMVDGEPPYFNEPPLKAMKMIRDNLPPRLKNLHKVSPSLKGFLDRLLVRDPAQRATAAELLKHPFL
- ASSAY NAME: PAK4 cellular assay: sandwich ELISA of PAK4-dependent phosphorylation of GEF-H1b in TR-293-KDG cells
- STUDY CONDITIONS: 3-hour exposure
Scale: pEC50 equals -log10([C]), with [C] in mol/L.

Please report the measured pEC50 for CN(C)C[C@@H](OC(=O)N1Cc2c(NC(=O)c3ccc(F)cc3F)n[nH]c2C1(C)C)C1CCCCC1 [Example 34]
7.22

Please report the measured pEC50 for CC1(C)c2[nH]nc(NC(=O)c3cccs3)c2CN1C(=O)N[C@H]1C[C@@H]1c1ccccc1 (relative stereo) [Example 98]
5.97

Please report the measured pEC50 for CN(C)CC(OC(=O)N1Cc2c(n[nH]c2NC(=O)C2CCCO2)C1(C)C)c1cccc(F)c1 (single isomer, unassigned) [Example 84A]
7.80

Please report the measured pEC50 for CN(C)C[C@@H](OC(=O)N1Cc2c(NC(=O)c3ccc(F)cc3)n[nH]c2C1(C)C)C1CCCCC1 [Example 75]
6.94

Please report the measured pEC50 for CN(C)C[C@@H](OC(=O)N1Cc2c(NC(=O)c3cccc4c3OCC4)n[nH]c2C1(C)C)c1ccccc1 [Example 81]
6.98

Please report the measured pEC50 for CN(C)C[C@@H](OC(=O)N1Cc2c(NC(=O)C(C)(C)C)n[nH]c2C1(C)C)c1ccccc1 [Example 10]
8.14

Please report the measured pEC50 for CO[C@H](C)C(=O)Nc1n[nH]c2c1CN(C(=O)O[C@H](CN(C)C)c1ccccc1)C2(C)C [Example 117]
8.06

Please report the measured pEC50 for CN(C)C[C@@H](OC(=O)N1Cc2c(NC(=O)Cc3ccc(F)cc3)n[nH]c2C1(C)C)c1ccccc1 [Example 18]
7.55

Please report the measured pEC50 for CN(C)C[C@@H](OC(=O)N1Cc2c(NC(=O)[C@H]3CCCO3)n[nH]c2C1(C)C)c1ccccc1 [Example 89]
8.00

Please report the measured pEC50 for CN(C)C[C@@H](OC(=O)N1Cc2c(NC(=O)[C@@H]3C[C@H]3c3ccccc3)n[nH]c2C1(C)C)c1ccccc1 [Example 20]
7.10

Please report the measured pEC50 for CN(C)C[C@@H](OC(=O)N1Cc2c(NC(=O)C3CCCO3)n[nH]c2C1(C)C)c1ccccc1 (stereo partly drawn) [Example 15]
7.79

Please report the measured pEC50 for CN(C)C[C@@H](OC(=O)N1Cc2c(NC(=O)c3ccccc3)n[nH]c2C1(C)C)c1ccccn1 [Example 24]
6.85

Please report the measured pEC50 for CN(C)C[C@@H](OC(=O)N1Cc2c(NC(=O)c3ccccc3)n[nH]c2C1(C)C)C1CCCCC1 [Example 32]
6.79

Please report the measured pEC50 for CN(C)CC(CC(=O)N1Cc2c(NC(=O)c3cccs3)n[nH]c2C1(C)C)c1ccc(Cl)cc1 (stereo not drawn) [Example 97]
5.82

Please report the measured pEC50 for CN(C)C[C@@H](NC(=O)N1Cc2c(n[nH]c2NC(=O)c2nccs2)C1(C)C)c1ccccc1 [Example 71]
7.08
